# TEST_DETAILS: DAPI mCherry counterscreen qHTS for Zika virus inhibitors; further: nearly all actives have a fitted effect of over 55% in size
# CONDITION_SUMMARY: Vero cells, DAPI nuclear count cytotoxicity, imaging 48-72 h, infected with Zika reporter virus, MOI 1; series mostly up to 32.6 µM
Results filed as inconclusive are left out. Activity calls are given as the source filed them. The call rests on the fitted dose curve; in most records, active means well fitted cell-killing curve with a large enough effect; inconclusive means small, poorly fitted or top-dose-only effect; inactive means flat fitted curve, though single readings scatter.
Use one of these outcomes when replying: active, inactive

Cc1cc(S(=O)(=O)Nc2ccc(C(=O)O)cc2)c(C)c(S(=O)(=O)c2ccc(Cl)cc2)c1 ... inactive
COc1c2occc2cc2ccc(=O)oc12 ... inactive
COc1cnc(-c2ccc(Cn3c(CC(C)(C)C(=O)O)c(SC(C)(C)C)c4cc(OC[C@@H]5Cc6ccccc6N5C(C)=O)ccc43)cc2)nc1 ... active
O=C(OC1Cc2c(O)cc(O)cc2OC1c1cc(O)c(O)c(O)c1-c1c(C2Oc3cc(O)cc(O)c3CC2OC(=O)c2cc(O)c(O)c(O)c2)cc(O)c(O)c1O)c1cc(O)c(O)c(O)c1 (stereo unspecified) ... inactive
N#CC(C#N)=C(N)/C(C#N)=C/c1cc(O)c(O)c(O)c1 ... inactive

[Q] Kindly provide the recorded test outcome for the following molecule: O=C(O)c1ccccc1-c1c2cc(I)c(=O)c(I)c-2oc2c(I)c(O)c(I)cc12
[A] inactive

[Q] Kindly provide the recorded test outcome for the following molecule: Cc1ccc(-c2nnc(Nc3ccc(S(N)(=O)=O)cc3)c3ccccc23)cc1S(=O)(=O)N1CCOCC1
[A] inactive

[Q] Kindly provide the recorded test outcome for the following molecule: Nc1ncnc2c([C@@H]3N[C@H](CO)[C@@H](O)[C@H]3O)c[nH]c12
[A] inactive

[Q] Kindly provide the recorded test outcome for the following molecule: O=C(Nc1ccc(S(=O)(=O)N2CCOCC2)cc1)c1cc(Cl)ccc1NS(=O)(=O)c1ccc(Cl)s1
[A] active

[Q] Kindly provide the recorded test outcome for the following molecule: Nc1c(N=Nc2ccc([N+](=O)[O-])cc2)c(S(=O)(=O)O)cc2cc(S(=O)(=O)O)c(/C=C/c3ccccc3)c(O)c12
[A] inactive

====

# TEST_DETAILS: DAPI mCherry counterscreen qHTS for Zika virus inhibitors; further: nearly all actives have a fitted effect of over 55% in size
# CONDITION_SUMMARY: Vero cells, DAPI nuclear count cytotoxicity, imaging 48-72 h, infected with Zika reporter virus, MOI 1; series mostly up to 32.6 µM
Inconclusive results are not listed. Calls of active or inactive are those of the source. Calls follow the shape of the dose curve; as a rule, active = well fitted cell-killing curve with a large enough effect; inconclusive = small, poorly fitted or top-dose-only effect; inactive = flat fitted curve, though single readings scatter.
Use one of these outcomes when replying: TRUE = active, FALSE = inactive

[Q] Kindly provide the recorded test outcome for the following molecule: O=C(NCc1ccccc1Cl)c1ccc2c(O)c(S(=O)(=O)c3ccccc3)c(=O)[nH]c2c1
[A] FALSE

[Q] Kindly provide the recorded test outcome for the following molecule: CC1(COc2ccc(CC3SC(=O)NC3=O)cc2)CCCCC1 (centres undefined)
[A] TRUE

[Q] Kindly provide the recorded test outcome for the following molecule: O=C(Nc1cccc(C(=O)OCc2cc(=O)n3nc(C4CC4)sc3n2)c1)c1ccc(F)cc1
[A] FALSE

[Q] Kindly provide the recorded test outcome for the following molecule: CCCCCCCCc1ccc(CCC(N)(CO)CO)cc1
[A] TRUE

[Q] Kindly provide the recorded test outcome for the following molecule: CC(C)=CCOc1ccc(/C=C/C(=O)c2ccc(OCC=C(C)C)cc2OCC(=O)O)cc1
[A] TRUE

[Q] Kindly provide the recorded test outcome for the following molecule: Cc1ccc(NC(=O)c2ccc3c(O)c(S(=O)(=O)c4ccc(Cl)cc4)c(=O)[nH]c3c2)cc1
[A] FALSE
